Heads up, these molecules all have MIC values measured for Staphylococcus epidermidis ATCC 12228.
// return numeric value only (unit: µg/mL, not printed)

Worked examples, 6 molecules total:
// recorded MIC for O=C(O)c1cn(C2CC2)c2c3c(ccc2c1=O)-c1c[nH]c(=O)cc1COC3 [Compound 21] : 1

// recorded MIC for O=C(O)c1cn(C2CC2)c2c3c(ccc2c1=O)-c1cnc(NC[C@H](O)CO)cc1COC3 [Trifluoroacetate of Compound 22] : 0.25

// recorded MIC for CNc1cc2c(cn1)-c1ccc3c(=O)c(C(=O)O)cn(C4CC4)c3c1CCC2 [Trifluoroacetate of Compound 20] : 0.125

// recorded MIC for O=C(O)c1cn(C2CC2)c2c3c(ccc2c1=O)-c1cnccc1COC3 [Trifluoroacetate of Compound 11] : 0.03

// recorded MIC for CCCNc1cc2c(cn1)-c1ccc3c(=O)c(C(=O)O)cn(C4CC4)c3c1COC2 [Trifluoroacetate of Compound 13] : 0.06

// recorded MIC for Nc1cc2c(cn1)-c1ccc3c(=O)c(C(=O)O)cn(C4CC4)c3c1COC2 [Trifluoroacetate of Compound 7] : 0.06

API: the following record is the query input.
// recorded MIC for O=C(O)c1cn(C2CC2)c2c3c(ccc2c1=O)-c1cc2nc[nH]c2cc1COC3 [Compound 3] : 0.06

----------
# System: Staphylococcus epidermidis ATCC 12228
Structures can show the parent of a compound that is named as a salt.
Property: MIC; scope: individual compounds
// return numeric value only (unit: mg/L, not printed)

Worked examples, 2 compounds total:
Case N=C(N)NOCCOCCNc1cc2c(cn1)-c1ccc3c(=O)c(C(=O)O)cn(C4CC4)c3c1COC2 [Hydrochloride of Compound 29] , Staphylococcus epidermidis ATCC 12228, MIC recorded as 2

Case CNc1cc2c(cn1)-c1ccc3c(=O)c(C(=O)O)cn(C4CC4)c3c1COC2 [Trifluoroacetate of Compound 2] , Staphylococcus epidermidis ATCC 12228, MIC recorded as 0.06

---
Case CC1(C)OC[C@H](CNc2cc3c(cn2)-c2ccc4c(=O)c(C(=O)O)cn(C5CC5)c4c2COC3)O1 [Compound 26] , Staphylococcus epidermidis ATCC 12228, MIC recorded as 0.25

----------
Heads up, these molecules all have MIC values measured for Staphylococcus epidermidis ATCC 12228.
Counter-ions that a name gives are not always drawn.
// return numeric value only (unit: µg/mL, not printed)

Worked examples, 5 molecules total:
Case O=C(O)c1cn(C2CC2)c2c3c(ccc2c1=O)-c1cnc(NCCO)cc1COC3 [Trifluoroacetate of Compound 12] , Staphylococcus epidermidis ATCC 12228, MIC recorded as 0.06

Case O=C(O)c1cn(C2CC2)c2c3c(ccc2c1=O)-c1cnc(NCc2ccccc2)cc1COC3 [Trifluoroacetate of Compound 15] , Staphylococcus epidermidis ATCC 12228, MIC recorded as 0.06

Case Nc1ncc2c(n1)COCc1c-2ccc2c(=O)c(C(=O)O)cn(C3CC3)c12 [Trifluoroacetate of Compound 9] , Staphylococcus epidermidis ATCC 12228, MIC recorded as 0.03

Case `CN(C[C@H]1COC(C)(C)O1)c1cc2c(cn1)-c1ccc3c(=O)c(C(=O)O)cn(C4CC4)c3c1COC2` , Staphylococcus epidermidis ATCC 12228, MIC recorded as 0.25

Case CCNc1cc2c(cn1)-c1ccc3c(=O)c(C(=O)O)cn(C4CC4)c3c1COC2 [Trifluoroacetate of Compound 14] , Staphylococcus epidermidis ATCC 12228, MIC recorded as 0.06

---
Case Cc1cc2c(cn1)-c1ccc3c(=O)c(C(=O)O)cn(C4CC4)c3c1COC2 [Sodium salt of Compound 10] , Staphylococcus epidermidis ATCC 12228, MIC recorded as 0.06

Case CN(CC(F)F)c1cc2c(cn1)-c1ccc3c(=O)c(C(=O)O)cn(C4CC4)c3c1COC2 [Trifluoroacetate of Compound 23] , Staphylococcus epidermidis ATCC 12228, MIC recorded as 0.12

Each recorded value in this set is attributed to patent US20250042912A1.
